# credit: PubChem BioAssay (NCI)

tested on: M14 melanoma; assay: NCI tumour cell line growth inhibition, 48 h

{"columns": ["Compound", "TGI"],
 "data": [
  ["COc1cccc(/C=N/[N-]C(N)=O)c1[O-].[Co+2].[OH3+].c1ccncc1", "> 100 µM"],
  ["CCc1ccccc1NC(=O)C(=O)C1C(=O)N(c2ccccc2)N=C1N (stereo unspecified)", "> 100 µM"],
  ["Cc1cc(=O)oc2c(C)c3oc(CBr)cc3cc12", "34.8 µM"],
  ["COC(=O)Cc1c(C2C(CC(=O)OC)c3ccccc3N2C2OC(CO)C(O)C(O)C2O)[nH]c2ccccc12 (stereo unspecified)", "> 100 µM"],
  ["Cn1c(=S)[nH]c(N)c(Cc2ccccc2)c1=O", "> 100 µM"],
  ["NC1NCCC(=O)N1CCc1c[nH]c2ccccc12 (stereo unspecified)", "33.3 µM"],
  ["C#CCNC(=O)CC[C@@H](C)[C@H]1CC[C@H]2[C@@H]3CC[C@@H]4CC(=O)CC[C@]4(C)[C@H]3CC[C@]12C", "37.2 µM"],
  ["CCCC(C(=O)OC)C1N=C(NC#N)N(Cc2ccccc2)C1=O (stereo unspecified)", "> 100 µM"],
  ["COc1ncc(-c2ccc3nccc(C#CCCCCC(=O)NO)c3c2)cc1NS(=O)(=O)c1ccc(F)cc1F", "3.62 µM"],
  ["CC(C)C(=O)/C=C/c1c(Cl)cccc1Cl", "6.69 µM"],
  ["COC(=O)[C@]12CC[C@@H](C)[C@H](C)[C@@H]1C1=CC[C@@H]3[C@@](C)(CC#N)C4=C(C[C@@]3(C)[C@]1(C)CC2)OC[C@]4(C)C=O", "19.9 µM"],
  ["CCOC(=O)CC1Nc2ccccc2C12CCc1c([nH]c3ccccc13)C2C(=O)OCC (stereo unspecified)", "> 100 µM"],
  ["COc1ccc(C=O)cc1OS(=O)(=O)C(F)(F)C(F)(F)C(F)(F)C(F)(F)F", "> 80.5 µM"],
  ["CC1C(O)=C(O)c2ccccc2N1O (stereo unspecified)", "> 100 µM"],
  ["CCn1ncc(N=O)c1N", "> 100 µM"],
  ["COC(=O)C1=CC(=O)[C@@H]2CCCC[C@H]12", "> 100 µM"]
]}

====

Recorded TGI, one value per entry.
test system: IGROV1 ovarian; experiment: NCI tumour cell line growth inhibition, 48 h

{"columns": ["Compound", "System Tested", "TGI"],
 "data": [
  ["CC/C(=C(/c1ccc(OCCN(C)C)cc1)c1ccc(OC(=O)CCCCCCCCC(=O)c2c(C)[nH]c(/C=C3\\N=C(c4ccc[nH]4)C=C3OC)c2C)cc1)c1ccccc1", "IGROV1 ovarian", "> 100 µM"],
  ["O=c1/c(=C\\c2ccc(Br)cc2)sc2n1C(c1ccc(Br)cc1)C1=C(N=2)c2ccc3ccccc3c2OCC1 (stereo not drawn)", "IGROV1 ovarian", "> 100 µM"],
  ["C=C1CC[C@@H]2[C@](C)(COC(=O)CCC(=O)O)CCC[C@@]2(C)[C@@H]1CCC1=CC(=O)OC1", "IGROV1 ovarian", "> 100 µM"],
  ["C=CC(=O)N1CCC[C@@H](n2nc(-c3ccc(Oc4ccccc4)cc3)c3c(N)ncnc32)C1", "IGROV1 ovarian", "> 10 µM"],
  ["CC1CC(=O)Nc2ccccc2N1C(=O)C1CC1 (stereo not drawn)", "IGROV1 ovarian", "> 100 µM"],
  ["N#CCCN(c1ccc(C=O)cc1)S(=O)(=O)c1ccccc1", "IGROV1 ovarian", "> 100 µM"],
  ["Cc1cc(=O)oc2c(C)c3oc(CBr)cc3cc12", "IGROV1 ovarian", "33.3 µM"],
  ["O=C(CCN1CCCN(c2cnc3ccccc3n2)CC1)c1csc2ccccc12", "IGROV1 ovarian", "31.2 µM"],
  ["CC(C)[Si](Oc1ccc(CC2N(C(=O)c3ccc([N+](=O)[O-])cc3)C(CCc3ccccc3)CC2(C)C=O)cc1)(C(C)C)C(C)C (stereo not drawn)", "IGROV1 ovarian", "> 100 µM"],
  ["COc1ccc(/C=C\\c2cc(OC)c(OC)c(OC)c2)c(NS(=O)(=O)c2ccc(F)cc2)c1O", "IGROV1 ovarian", "> 100 µM"],
  ["O=C(CC(=O)c1cccc([N+](=O)[O-])c1)C(=O)Nc1ccccc1", "IGROV1 ovarian", "> 100 µM"],
  ["CC[As](CC)SCC1OC(OC(C)=O)C(OC(C)=O)C(OC(C)=O)C1OC(C)=O (stereo not drawn)", "IGROV1 ovarian", "33.8 µM"],
  ["CC(C)C(=O)/C=C/c1c(Cl)cccc1Cl", "IGROV1 ovarian", "14.2 µM"],
  ["COC(=O)C(C(=O)C(=O)Nc1ccccc1C)c1nc2ccc([N+](=O)[O-])cc2[nH]c1=O (stereo not drawn)", "IGROV1 ovarian", "> 100 µM"],
  ["Cc1cc(C)nc(NS(=O)(=O)c2ccc(NC(=O)COC(=O)c3cccc4c(=O)c5ccccc5[nH]c34)cc2)n1", "IGROV1 ovarian", "> 100 µM"],
  ["O=c1n(CC2CS2)c2ccccc2n1CC1CS1 (stereo not drawn)", "IGROV1 ovarian", "> 100 µM"],
  ["COc1ncc(-c2ccc3nccc(C#CCCCCC(=O)NO)c3c2)cc1NS(=O)(=O)c1ccc(F)cc1F", "IGROV1 ovarian", "0.559 µM"],
  ["O=C(/C=C/C=C/c1ccc2c(c1)OCO2)N/N=C\\c1ccc(O)cc1O", "IGROV1 ovarian", "14.3 µM"],
  ["Nc1cc(N)c2nc(NCCc3ccc(Cl)c(Cl)c3)cnc2c1", "IGROV1 ovarian", "28.7 µM"],
  ["CN(Cc1cnc2nc(N)nc(N)c2n1)c1ccc(C(=O)NCCCC(=O)O)cc1", "IGROV1 ovarian", "> 100 µM"],
  ["Cc1c(C#N)c2nc3ccccc3n2c(=O)/c1=C/Nc1ccc(Cl)cc1", "IGROV1 ovarian", "> 100 µM"],
  ["Cc1c(Cl)c(C)c(Cl)c(O)c1Cl", "IGROV1 ovarian", "> 100 µM"],
  ["COc1cc(OC)c(/C=N\\Nc2nc3ccccc3c(=O)n2-c2ccccc2)c(OC)c1", "IGROV1 ovarian", "> 100 µM"],
  ["CC#CC#C/C(=C/C=CC(=O)OC)SC", "IGROV1 ovarian", "> 100 µM"],
  ["O=C(CCCn1ccnc1[N+](=O)[O-])NCCn1cnc([N+](=O)[O-])n1", "IGROV1 ovarian", "> 100 µM"],
  ["COC(=O)Nc1nc2ccc(C(=O)c3ccc(F)cc3)cc2[nH]1", "IGROV1 ovarian", "> 66.1 µM"],
  ["S=C1NNC2(C(=S)N1)c1ccccc1-c1ccccc12", "IGROV1 ovarian", "> 10 µM"],
  ["C[C@@H](c1ccccc1)N1CO[C@@]2(C#Cc3ccc4c(c3)OCO4)CCC[C@@H]12", "IGROV1 ovarian", "22.9 µM"],
  ["COc1ccc(/C=C/C(=O)CCN2CCN(CCC(=O)/C=C/c3ccc(OC)cc3)CC2)cc1", "IGROV1 ovarian", "25.9 µM"],
  ["c1ccc2c(c1)-c1ccccc1C2NC1=NCCO1", "IGROV1 ovarian", "40.3 µM"],
  ["CN(C)c1ccc(/C=c2/c3cc(O)ccc3n3c2cc(-c2ccccc2)[n+]3C)cc1", "IGROV1 ovarian", "1.47 µM"],
  ["c1ccc(CC(Nc2cccnc2)c2ccccc2)cc1 (stereo not drawn)", "IGROV1 ovarian", "> 100 µM"],
  ["C=C(C)CCC(O)[C@](C)(O)[C@H]1[C@H](O)C[C@@]2(C)[C@@H]3CCc4c(cc(OC5OC(CO)C(O)C(O)C5O)c(O)c4C)C3(C)C(=O)C[C@]12C (stereo partly drawn)", "IGROV1 ovarian", "> 100 µM"],
  ["COc1ccc(/C=C/C(=O)/C=C(O)/C=C/c2ccc(OC)c(OC)c2)cc1OC", "IGROV1 ovarian", "> 100 µM"],
  ["Cc1cccc(N=N/C(=N\\NC(=O)c2cc(Cl)ccc2O)c2ccc(N(CCC#N)CCC#N)cc2C)c1", "IGROV1 ovarian", "43.6 µM"],
  ["Cc1cc(-c2cc(OC(=O)c3ccccc3)ccc2Cl)cc2nnc(Nc3ccc(OCCN4CCCC4)cc3)nc12", "IGROV1 ovarian", "3.78 µM"],
  ["C[C@]12CC[C@H]3[C@@H](CC[C@]4(O)C[C@@H](O[C@@H]5O[C@H](CO)[C@@H](O[C@@H]6OC[C@@H](O)[C@H](O)[C@H]6O)[C@H](O)[C@H]5O)CC[C@]34C=O)[C@@]1(O)CC[C@@H]2C1=CC(=O)OC1", "IGROV1 ovarian", "17.6 µM"],
  ["CCn1ncc(N=O)c1N", "IGROV1 ovarian", "> 100 µM"]
]}
